- Assay: Rate of clearance of the drug substance (total systemic clearance)
- Format: in vivo
- Conditions: human, plasma; in adults
Measured attribute: clearance (mL/min)
Respond with the bare value in mL/min.

Given the compound Cc1oc(-c2ccccc2)nc1CCOc1ccc(C[C@H](Nc2ccccc2C(=O)c2ccccc2)C(=O)O)cc1 , what is its reported clearance?
250
